Test system: SF-539 CNS
Assay: NCI-60 one-dose screen, 48 h (100 = growth as untreated, 0 = no growth, -100 = all killed)
Conditions: 10 µM unless noted
Compounds without any hit were thinned out: in the full panel of roughly 83,000, 20% have a hit.
experimental readout: growth (%)
Answers are plain numbers, in %.

// solved cases for growth follow
molecule: O=c1[nH]cc(Nc2cc(Cl)c3nonc3c2[N+](=O)[O-])c(=O)[nH]1
measured result: 101
//
molecule: CCC(C)C1NC(=O)C(CCNCS(=O)(=O)O)NC(=O)C(NC(=O)C(CCNCS(=O)(=O)O)NC(=O)C(NC(=O)C(CCNCS(=O)(=O)O)NC(=O)CCCCC(C)C)C(C)O)CCNC(=O)C(C(C)O)NC(=O)C(CCNCS(=O)(=O)O)NC(=O)C(CCNCS(=O)(=O)O)NC(=O)C(C(C)CC)NC1=O (centres undefined)
measured result: 27.3
//
molecule: Cc1ccc(-c2csc(N)n2)cc1
measured result: 102
//
molecule: CN1CCC[C@@H]1CCO[C@](C)(c1ccccc1)c1ccc(Cl)cc1
measured result: 76.2
//
molecule: Cc1ccc(-c2c3c(N)nc(-c4ccncc4)nc3nc3c2c(C)nn3-c2ccccc2)cc1
measured result: 11.3

Batch: growth for all items listed.
1. COc1cccc(C2=NN(C(C)=O)C(c3cc(OC)c(OC)c(OC)c3)C2)c1 (centres undefined)
2. NS(=O)(=O)c1cc(C2(O)NC(=O)c3ccccc32)ccc1Cl (centres undefined)
3. CCOC(=O)C(Br)=P(c1ccccc1)(c1ccccc1)c1ccccc1
4. COc1ccc2cc(-c3nc4ccccc4[nH]3)c(=O)oc2c1
5. O=C(Nc1ccccc1S)c1ccccc1
6. Cc1cc(C)c2c(N)c3cccc(C)c3nc2n1

1. 7.59
2. 97.7
3. 101
4. 98.8
5. 104
6. 1.42
